The variants listed here are annotated with their protein stability index.
B1: GFOD1 (parent)
chain: SDDFCTFQMVLEGGVCCTVTLNFN

Variants of: B1
Assay: protein stability index of a GFP-peptide fusion (GPS, HEK-293T) (PSI 1-6); higher = more stable;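 also: lentivirally expressed fusions sorted by FACS into six bins by GFP to DsRed ratio, PSI derived from sequencing read proportions per bin multiplied by bin number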
Conditions: c terminus: a fixed tail appended
measurement.label: protein stability index

# biopolymer.sequence, number
data = [
    ("SDDFCTFQMVLEGGVCCTVTRNFN [L21R]", 1.55),
    ("SGDFCTFQMVLEGGVCCTVTLNFN [D2G]", 2.84),
    ("SDDFRTFQMVLEGGVCCTVTLNFN [C5R]", 3.13),
    ("SDDFCTFQMALEGGVCCTVTLNFN [V10A]", 2.91),
    ("SDDFCTDQMVLEGGVCCTVTLNFN [F7D]", 1.59),
    ("SDDFCTFQMVLMGGVCCTVTLNFN [E12M]", 3.38),
    ("SDDFCHFQMVLEGGVCCTVTLNFN [T6H]", 2.12),
    ("SDDFHTFQMVLEGGVCCTVTLNFN [C5H]", 2.97),
    ("SDDFCTFQMVFEGGVCCTVTLNFN [L11F]", 3.38),
    ("SDDFCTFQMVLEGGVCCTDTLNFN [V19D]", 2.65),
    ("SDDFCTFQMVLEGGVCCWVTLNFN [T18W]", 1.95),
    ("SDDFCTFQMVLEGGPCCTVTLNFN [V15P]", 2.97),
    ("SDDFCNFQMVLEGGVCCTVTLNFN [T6N]", 2.54),
    ("SDDFCTFQMVLEGGVCCTVTLNFW [N24W]", 3.94),
    ("SDYFCTFQMVLEGGVCCTVTLNFN [D3Y]", 4),
    ("SDDFCTFQMVLEGGVCCTVCLNFN [T20C]", 1.75),
    ("SDDFCTFQMVLEGGVCCTRTLNFN [V19R]", 1.9),
    ("SDDFCTFWMVLEGGVCCTVTLNFN [Q8W]", 2.86),
    ("EDDFCTFQMVLEGGVCCTVTLNFN [S1E]", 1.75),
    ("SDDFCTFQMVLEGGVCCTVTLNEN [F23E]", 3.16),
]

These measurements were taken from the supplement of paper PMC10567573.
